Target: recombinant human MGAT2 (Homo sapiens (Human))
Sequence (Q3SYC2 whole entry): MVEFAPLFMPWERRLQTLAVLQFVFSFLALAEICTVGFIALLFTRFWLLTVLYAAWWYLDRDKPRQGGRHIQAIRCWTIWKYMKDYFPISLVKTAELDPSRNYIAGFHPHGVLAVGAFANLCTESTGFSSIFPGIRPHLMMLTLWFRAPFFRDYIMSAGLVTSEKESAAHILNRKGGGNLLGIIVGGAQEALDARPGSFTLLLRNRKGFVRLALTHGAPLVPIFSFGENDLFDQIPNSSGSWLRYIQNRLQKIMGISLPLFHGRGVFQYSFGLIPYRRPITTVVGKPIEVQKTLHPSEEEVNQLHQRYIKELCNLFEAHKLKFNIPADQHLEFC
Test: Measurement of human MGAT2 inhibitory activity
Conditions: recombinant human MGAT2 membrane fraction (Sf-9); 2-Oleoylglycerol and Oleoyl-CoA substrates; 1 hour at room temperature; Diolein detected by RapidFire Q-TOF MS
I'd appreciate it if you marked entries yes (1) when IC50 is lower than 100 nM and no (0) when it is not.

Before answering, review these 5 worked examples.
# COMPOUND, GROUP
rows = [
    ("CC(C)c1ccc(C2=C(CNC(=O)CS(C)(=O)=O)C(=O)N[C@@](c3ccc(OCCCC(F)(F)F)cc3)(C(F)(F)F)C2)nc1", "yes (1)"),
    ("Cc1ccc(C2=C(CNC(N)=O)C(=O)N[C@@](c3ccc(OCCCC(F)(F)F)cc3)(C(F)(F)F)C2)nc1", "no (0)"),
    ("COc1ccc(C2=C(CNS(=O)(=O)c3ccccc3)C(=O)N[C@@](c3ccc(OCCCC(F)(F)F)cc3)(C(F)(F)F)C2)nc1", "no (0)"),
    ("Cc1ccc(C2=C(CNC(=O)CC#N)C(=O)N[C@@](c3ccc(OCCCC(F)(F)F)cc3)(C(F)(F)F)C2)nc1", "yes (1)"),
    ("CC(C)c1ccc(C2=C(CNC(=O)CN(C)C)C(=O)N[C@@](c3ccc(OCCCC(F)(F)F)cc3)(C(F)(F)F)C2)nc1", "yes (1)"),
]

Data request: Consider C=C(C)c1ccc(C2=C(CNC(=O)CS(C)(=O)=O)C(=O)N[C@@](c3ccc(OCCCC(F)(F)F)cc3)(C(F)(F)F)C2)nc1 . Does its IC50 lie strictly below 100 nM?
Data returned: yes (1)

Data request: Is 100 nM strictly greater than the compound's reported IC50? compound: COc1ccc(C2=C(CNC(C)=O)C(=O)N[C@@](c3ccc(OCCCC(F)(F)F)cc3)(C(F)(F)F)C2)nc1 (racemic)
Data returned: no (0)
